- Tested on: Pharbitis purpurea (PHBPU)
- assayText: Post-emergence herbicidal action against PHBPU
- Assay type: in vivo
- conditionDetails: dosage 80 g/ha
measurementLabel: Post-emergence action against PHBPU in % (%)
Just the number please, in %, no unit attached.

Here's what some known entries look like.
C[C@@H](Oc1nn(-c2ccccn2)c(-c2cncc(F)c2)c1Cl)C(=O)O    90
COC(=O)C(C)OC(=O)C(C)Oc1nn(-c2ccccn2)c(-c2ccc(F)nc2)c1Br (stereo not drawn)    80
CCOC(=O)COc1nn(-c2ccncc2F)c(-c2ccc(F)nc2)c1Br    80
COC(=O)COc1nn(-c2ncccc2F)c(-c2ccc(F)nc2)c1Br    80
COC(=O)[C@@H](C)Oc1nn(-c2ncccc2F)c(-c2ccc(F)nc2)c1I    90
COC(=O)[C@H](C)COC(=O)[C@@H](C)Oc1nn(-c2ccccn2)c(-c2ccc(F)nc2)c1Cl    90
CCOC(=O)COc1nn(-c2ccccn2)c(-c2ccc(F)nc2)c1Cl    90
COC(=O)CCOC(=O)COc1nn(-c2cccc(C)n2)c(-c2ccc(F)nc2)c1Cl    80

Problem: Give the measured Post-emergence action against PHBPU in % for `COC(=O)CCOC(=O)COc1nn(-c2cccnc2C)c(-c2cncc(F)c2)c1Br`
Result: 80

Problem: Given the compound `COC(=O)COc1nn(-c2ncccc2F)c(-c2ccc(F)nc2)c1Cl` , write its reported Post-emergence action against PHBPU in %.
Result: 80

Problem: Supply measured Post-emergence action against PHBPU in % of `CCOC(=O)[C@@H](C)Oc1nn(-c2ncccc2F)c(-c2cncc(F)c2)c1Cl` in your reply.
Result: 90

Problem: Using the record for `C[C@H](NC(=O)COc1nn(-c2ccccn2)c(-c2cncc(F)c2)c1Br)C(=O)O` , state its measured Post-emergence action against PHBPU in %.
Result: 80

Problem: Retrieve Post-emergence action against PHBPU in % measured for `C[C@@H](Oc1nn(-c2ncccc2F)c(-c2ccc(F)nc2)c1C1CC1)C(=O)O` and print it.
Result: 80

Problem: Annotate the compound `COC(=O)CCOC(=O)[C@@H](C)Oc1nn(-c2ccccn2)c(-c2ccc(Cl)nc2)c1Cl` with its measured Post-emergence action against PHBPU in %.
Result: 80

Problem: Return reported Post-emergence action against PHBPU in %. Input compound: Cc1ncccc1-n1nc(OCC(=O)OCC2CCCO2)c(Br)c1-c1cncc(F)c1 (stereo not drawn)
Result: 80

Problem: Retrieve Post-emergence action against PHBPU in % measured for `O=C(O)COc1nn(-c2ncccc2F)c(-c2ccc(F)nc2)c1Br` and print it.
Result: 80
